Assay: Cassette dosing and serum analysis for determination of oral bioavailability
Type: in vivo, rat
Conditions: male SD rats, oral cassette of 6 compounds, total dose 10 mg/kg, plasma at 4, 8, 12 h

| COMPOUND | AUC (average AUC 0→12 h) |
| --- | --- |
| CCN(CC)c1ncc(N(C)S(=O)(=O)c2cccc(F)c2)c(N[C@@H](Cc2ccc(OC(=O)N(C)C)cc2)C(=O)O)n1 [Example 7] | 0.717 (μg/mL)h |
| CCN(CC)c1ncc(N(C(C)C)S(=O)(=O)c2ccc(F)c(F)c2)c(NC(Cc2ccc(OC(=O)N(C)C)cc2)C(=O)O)n1 (stereo not drawn) [Example 10] | 0.1215 (μg/mL)h |
| CCN(CC)c1ncc(N(CC)S(=O)(=O)c2cccc(F)c2F)c(NC(Cc2ccc(OC(=O)N(C)C)cc2)C(=O)O)n1 (stereo not drawn) [Example 26] | 0.3392 (μg/mL)h |
| C#CCN(c1cnc(N(CC)CC)nc1NC(Cc1ccc(OC(=O)N(C)C)cc1)C(=O)O)S(=O)(=O)c1ccc(F)cc1F (stereo not drawn) [Example 28] | 0.7968 (μg/mL)h |
| CCN(CC)c1ncc(N(CC(C)C)S(=O)(=O)c2ccc(F)cc2)c(N[C@@H](Cc2ccc(OC(=O)N(C)C)cc2)C(=O)O)n1 [Example 23] | 0.413 (μg/mL)h |
| CCN(CC)c1ncc(N(C)S(=O)(=O)c2cc(Cl)cc(Cl)c2)c(N[C@@H](Cc2ccc(OC(=O)N(C)C)cc2)C(=O)O)n1 [Example 19] | 0.0697 (μg/mL)h |

====

AUC (average AUC 0→12 h) values for the molecules below.
Experiment: Cassette dosing and serum analysis for determination of oral bioavailability
Assay type: in vivo, rat
Conditions: male SD rats, oral cassette of 6 compounds, total dose 10 mg/kg, plasma at 4, 8, 12 h
READOUT: AUC (average AUC 0→12 h)

| MOLECULE | READOUT | RESULT |
| --- | --- | --- |
| CCN(CC)c1ncc(N(CC)S(=O)(=O)c2ccc(F)cc2F)c(N[C@@H](Cc2ccc(OC(=O)N(C)C)cc2)C(=O)O)n1 | AUC (average AUC 0→12 h) | 0.2578 (μg/mL)h |
| CCN(CC)c1ncc(N(C)S(=O)(=O)c2ccc(F)c(F)c2)c(N[C@@H](Cc2ccc(OC(=O)N(C)C)cc2)C(=O)O)n1 | AUC (average AUC 0→12 h) | 1.5483 (μg/mL)h |
| CCN(CC)c1ncc(N(C)S(=O)(=O)c2cc(F)ccc2F)c(NC(Cc2ccc(OC(=O)N(C)C)cc2)C(=O)O)n1 (stereo not drawn) | AUC (average AUC 0→12 h) | 0.4559 (μg/mL)h |

====

Listing of recorded pIC50 by entry.
Target: α4β1 Integrin (Homo sapiens, UniProt P05556+P13612)
Construct: endogenous in cells; host or cells: Jurkat cells
Sequence (P13612 34-1032): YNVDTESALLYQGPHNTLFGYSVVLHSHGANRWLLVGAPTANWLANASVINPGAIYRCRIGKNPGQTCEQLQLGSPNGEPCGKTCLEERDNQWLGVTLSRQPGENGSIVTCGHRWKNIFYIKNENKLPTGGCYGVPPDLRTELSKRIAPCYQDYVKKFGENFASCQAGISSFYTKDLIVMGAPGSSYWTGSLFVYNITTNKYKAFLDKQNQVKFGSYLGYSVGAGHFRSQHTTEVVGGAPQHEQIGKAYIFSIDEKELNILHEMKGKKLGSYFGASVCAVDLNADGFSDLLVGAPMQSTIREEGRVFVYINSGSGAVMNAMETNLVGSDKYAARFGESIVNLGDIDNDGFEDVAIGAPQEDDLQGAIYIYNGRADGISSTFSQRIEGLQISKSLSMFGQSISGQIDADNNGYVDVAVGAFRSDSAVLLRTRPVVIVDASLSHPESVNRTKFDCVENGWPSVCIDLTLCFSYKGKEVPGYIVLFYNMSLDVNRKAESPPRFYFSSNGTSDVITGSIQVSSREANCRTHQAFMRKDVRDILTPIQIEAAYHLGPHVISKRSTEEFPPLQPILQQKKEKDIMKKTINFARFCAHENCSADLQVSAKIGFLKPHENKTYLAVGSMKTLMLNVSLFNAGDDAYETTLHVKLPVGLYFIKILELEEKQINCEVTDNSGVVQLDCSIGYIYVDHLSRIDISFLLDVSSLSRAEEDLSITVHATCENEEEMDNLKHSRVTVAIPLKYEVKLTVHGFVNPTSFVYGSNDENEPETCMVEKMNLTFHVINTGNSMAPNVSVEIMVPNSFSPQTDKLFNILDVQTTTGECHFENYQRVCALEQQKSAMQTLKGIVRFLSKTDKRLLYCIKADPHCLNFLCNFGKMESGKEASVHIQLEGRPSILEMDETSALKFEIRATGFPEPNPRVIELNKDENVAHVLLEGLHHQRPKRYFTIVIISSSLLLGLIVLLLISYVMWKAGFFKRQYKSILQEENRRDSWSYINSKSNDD
Sequence (P05556 21-798): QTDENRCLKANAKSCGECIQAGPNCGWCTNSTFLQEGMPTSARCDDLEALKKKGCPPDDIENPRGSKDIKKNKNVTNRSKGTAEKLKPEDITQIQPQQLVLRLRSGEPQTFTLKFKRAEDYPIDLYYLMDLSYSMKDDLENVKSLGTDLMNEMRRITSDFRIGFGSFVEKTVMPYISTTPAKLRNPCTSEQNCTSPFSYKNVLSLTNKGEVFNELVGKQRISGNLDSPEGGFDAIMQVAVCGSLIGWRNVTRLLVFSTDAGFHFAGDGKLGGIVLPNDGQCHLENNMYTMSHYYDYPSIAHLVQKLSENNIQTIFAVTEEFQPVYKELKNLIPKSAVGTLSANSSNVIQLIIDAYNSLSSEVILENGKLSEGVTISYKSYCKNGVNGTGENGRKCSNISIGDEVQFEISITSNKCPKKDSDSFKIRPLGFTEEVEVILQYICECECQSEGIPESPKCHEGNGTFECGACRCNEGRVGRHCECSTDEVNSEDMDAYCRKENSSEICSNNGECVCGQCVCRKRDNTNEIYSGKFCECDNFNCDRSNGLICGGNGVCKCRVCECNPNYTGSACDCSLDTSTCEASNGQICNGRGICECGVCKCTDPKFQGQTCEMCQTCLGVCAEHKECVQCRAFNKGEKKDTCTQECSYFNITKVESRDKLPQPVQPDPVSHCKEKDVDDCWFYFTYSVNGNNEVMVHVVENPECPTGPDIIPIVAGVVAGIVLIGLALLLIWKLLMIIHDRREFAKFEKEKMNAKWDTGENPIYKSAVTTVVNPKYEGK
Experiment: α4β1 Integrin Adhesion Assay: Jurkat cell adhesion to human plasma fibronectin
Type: cell-based
Conditions: IC50, Cell Adhesion to Human Plasma Fibronectin (With Human Serum), Jurkat cells, with human serum
pIC50: −log10 of the molar value.

| MOLECULE | pIC50 |
| --- | --- |
| CCN(CC)c1ncc(N(C)S(=O)(=O)c2ccc(F)c(F)c2)c(N[C@@H](Cc2ccc(OC(=O)N(C)C)cc2)C(=O)O)n1 [Example 3] | 6.60 |
| C#CCN(c1cnc(N(CC)CC)nc1NC(Cc1ccc(OC(=O)N(C)C)cc1)C(=O)O)S(=O)(=O)c1ccc(F)cc1F (stereo not shown) [Example 28] | 7.14 |
| CCN(CC)c1ncc(N(CC(F)(F)F)S(=O)(=O)c2ccc(F)cc2)c(NC(Cc2ccc(OC(=O)N(C)C)cc2)C(=O)O)n1 (stereo not shown) [Example 29] | 7.28 |
| CCN(CC)c1ncc(N(CC)S(=O)(=O)c2cc(Cl)cc(Cl)c2)c(N[C@@H](Cc2ccc(OC(=O)N(C)C)cc2)C(=O)O)n1 [Example 20] | 6.93 |
| CCN(CC)c1ncc(N(CC(C)C)S(=O)(=O)c2ccc(F)cc2)c(N[C@@H](Cc2ccc(OC(=O)N(C)C)cc2)C(=O)O)n1 [Example 23] | 6.93 |
| CCCN(c1cnc(N(CC)CC)nc1NC(Cc1ccc(OC(=O)N(C)C)cc1)C(=O)O)S(=O)(=O)c1ccc(F)cc1 (stereo not shown) [Example 21] | 6.19 |
| CCN(CC)c1ncc(N(C(C)C)S(=O)(=O)c2ccc(F)cc2)c(N[C@@H](Cc2ccc(OC(=O)N(C)C)cc2)C(=O)O)n1 [Example 8] | 6.58 |
| CCN(CC)c1ncc(N(CC)S(=O)(=O)c2cc(F)cc(F)c2)c(N[C@@H](Cc2ccc(OC(=O)N(C)C)cc2)C(=O)O)n1 [Example 16] | 6.97 |
| CCN(CC)c1ncc(N(CC)S(=O)(=O)c2ccc(F)cc2F)c(N[C@@H](Cc2ccc(OC(=O)N(C)C)cc2)C(=O)O)n1 [Example 18] | 7.39 |
| CCN(CC)c1ncc(N(C(C)C)S(=O)(=O)c2ccc(F)c(F)c2)c(NC(Cc2ccc(OC(=O)N(C)C)cc2)C(=O)O)n1 (stereo not shown) [Example 10] | 6.39 |
| CCN(CC)c1ncc(N(C(C)C)S(=O)(=O)c2ccc(Cl)cc2)c(N[C@@H](Cc2ccc(OC(=O)N(C)C)cc2)C(=O)O)n1 [Example 11] | 6.44 |
| CCN(CC)c1ncc(N(C)S(=O)(=O)c2ccc(Cl)c(Cl)c2)c(N[C@@H](Cc2ccc(OC(=O)N(C)C)cc2)C(=O)O)n1 [Example 4] | 6.20 |
| CCCCN(c1cnc(N(CC)CC)nc1NC(Cc1ccc(OC(=O)N(C)C)cc1)C(=O)O)S(=O)(=O)c1ccc(F)cc1 (stereo not shown) [Example 24] | 7.37 |

====

Each entry below carries its reported AUC (average AUC 0→12 h).
Experiment: Cassette dosing and serum analysis for determination of oral bioavailability
Assay type: in vivo, rat
Conditions: male SD rats, oral cassette of 6 compounds, total dose 10 mg/kg, plasma at 4, 8, 12 h
READOUT: AUC (average AUC 0→12 h)

| MOLECULE | RESULT |
| --- | --- |
| CCN(CC)c1ncc(N(CC)S(=O)(=O)c2cc(F)cc(F)c2)c(N[C@@H](Cc2ccc(OC(=O)N(C)C)cc2)C(=O)O)n1 | 0.1721 (μg/mL)h |
| CCN(CC)c1ncc(N(C)S(=O)(=O)c2ccc(F)cc2F)c(N[C@@H](Cc2ccc(OC(=O)N(C)C)cc2)C(=O)O)n1 | 1.0075 (μg/mL)h |
| CCCCN(c1cnc(N(CC)CC)nc1NC(Cc1ccc(OC(=O)N(C)C)cc1)C(=O)O)S(=O)(=O)c1ccc(F)cc1 (stereo not drawn) | 0.4983 (μg/mL)h |
| CCN(CC)c1ncc(N(CC)S(=O)(=O)c2cc(Cl)cc(Cl)c2)c(N[C@@H](Cc2ccc(OC(=O)N(C)C)cc2)C(=O)O)n1 | 0.0536 (μg/mL)h |
| C#CCN(c1cnc(N(CC)CC)nc1N[C@@H](Cc1ccc(OC(=O)N(C)C)cc1)C(=O)O)S(=O)(=O)c1ccc(F)cc1 | 1.6258 (μg/mL)h |
| CCN(CC)c1ncc(N(CC(F)(F)F)S(=O)(=O)c2ccc(F)cc2)c(NC(Cc2ccc(OC(=O)N(C)C)cc2)C(=O)O)n1 (stereo not drawn) | 0.2941 (μg/mL)h |

====

Target: α4β1 Integrin (Homo sapiens, UniProt P05556+P13612)
Construct: endogenous in cells; host or cells: Jurkat cells
Assay: α4β1 Integrin Adhesion Assay: Jurkat cell adhesion to human plasma fibronectin
Assay type: cell-based
Conditions: IC50, Cell Adhesion to Human Plasma Fibronectin (With Human Serum), Jurkat cells, with human serum
# 1 = IC50 below 100 nM (exclusive); -1 = IC50 at/above 100 nM

| COMPOUND | LABEL |
| --- | --- |
| CCN(CC)c1ncc(N(C)S(=O)(=O)c2cccc(F)c2)c(N[C@@H](Cc2ccc(OC(=O)N(C)C)cc2)C(=O)O)n1 [Example 7] | -1 |
| CCN(CC)c1ncc(N(CC2CC2)S(=O)(=O)c2ccc(F)cc2)c(N[C@@H](Cc2ccc(OC(=O)N(C)C)cc2)C(=O)O)n1 [Example 14] | 1 |
| CCN(CC)c1ncc(N(C)S(=O)(=O)c2cc(Cl)cc(Cl)c2)c(N[C@@H](Cc2ccc(OC(=O)N(C)C)cc2)C(=O)O)n1 [Example 19] | -1 |
| CCN(CC)c1ncc(N(C)S(=O)(=O)c2ccc(F)cc2F)c(N[C@@H](Cc2ccc(OC(=O)N(C)C)cc2)C(=O)O)n1 [Example 17] | 1 |
| CCN(CC)c1ncc(N(C)S(=O)(=O)c2cc(F)cc(F)c2)c(N[C@@H](Cc2ccc(OC(=O)N(C)C)cc2)C(=O)O)n1 [Example 15] | -1 |
| C#CCN(c1cnc(N(CC)CC)nc1N[C@@H](Cc1ccc(OC(=O)N(C)C)cc1)C(=O)O)S(=O)(=O)c1ccc(F)cc1 [Example 27] | -1 |
